# TEST SYSTEM: Bombyx mori EcR (VP16 fusion, CVBE switch construct) (Bombyx mori, UniProt P49881)
# EXPERIMENT SUMMARY: Z3 Assay (HEK-293 cells with CVBE and 6XEcRE LacZ, β-galactosidase reporter)
# SETTINGS: HEK293, read-out: Fold Induction, Z3 Assay, 3.3 uM
METRIC: fold induction at 3.3 µM
Numbers only.

Each of the following entries comes with a recorded value; kindly state fold induction at 3.3 µM for each.
1. COc1cccc(C(=O)NN(C(=O)c2cc(C)cc(C)c2)C(C)(C)C)c1CS(C)(=O)=O
2. COc1cc(C(=O)N(NC(=O)c2ccc3c(c2C)OCCO3)C(C)(C)C)cc(OC)c1C
3. COc1cccc(C(=O)NN(C(=O)c2cc(C)cc(C)c2)C(C)(C)C)c1CN(C)C
4. CCc1c(OC)cccc1C(=O)NN(C(=O)c1cc(C)cc(C)c1)C(C)(C)CO[Si](C)(C)C(C)(C)C
5. CCc1c(OC)cccc1C(=O)NN(C(=O)c1cc(C)cc(C)c1)C(C)(C)COC
6. CC(C)(C)N(NC(=O)c1ccc(Cl)cc1)C(=O)c1ccccc1
7. COc1cccc(C(=O)NN(C(=O)c2cc(Cl)c(F)c(Cl)c2)C(C)(C)C)c1C

1. 1
2. 211
3. 1
4. 6
5. 415
6. 63
7. 725

Entry COc1cccc(C(=O)NN(C(=O)c2cc(C)cc(C)c2)C(C)(C)C)c1C , fold induction at 3.3 µM reported as 535

---

Hi there, I'd appreciate the recorded Z3 assay Rel Max FI for every entry that follows.
# TEST SYSTEM: Bombyx mori EcR (VP16 fusion, CVBE switch construct) (Bombyx mori, UniProt P49881)
# EXPERIMENT SUMMARY: Z3 Assay (HEK-293 cells with CVBE and 6XEcRE LacZ, β-galactosidase reporter)
# SETTINGS: maximum fold induction at any concentration relative to that of GS-E ligand; HEK-293 Z3 cells

# count of solved cases: 3
>  <MOLECULE>
CCc1c(OC)cccc1C(=O)NN(C(=O)c1ccc(Cl)cc1[N+](=O)[O-])C(C)(C)C [RG-115647]

>  <RESULT>
0.923

$$$$
>  <MOLECULE>
COc1cc(OC)cc(C(=O)N(NC(=O)c2cccc(C)c2C)C(C)(C)C)c1 [RG-100764]

>  <RESULT>
0.900

$$$$
>  <MOLECULE>
CCc1ccc(C(=O)NN(C(=O)c2cc(F)ccc2[N+](=O)[O-])C(C)(C)C)c(F)c1 [RG-115086]

>  <RESULT>
0.433

$$$$

Proceed to the following item.
Entry CC(C)(C)N(NC(=O)c1c(F)ccc(F)c1F)C(=O)c1ccc(F)cc1Cl [RG-100620] , Z3 assay Rel Max FI reported as 0.869

---

Hi there, I'd appreciate the recorded pEC50 for every entry that follows.
# TEST SYSTEM: Bombyx mori EcR (VP16 fusion, CVBE switch construct) (Bombyx mori)
# Sequence (P49881 86-606): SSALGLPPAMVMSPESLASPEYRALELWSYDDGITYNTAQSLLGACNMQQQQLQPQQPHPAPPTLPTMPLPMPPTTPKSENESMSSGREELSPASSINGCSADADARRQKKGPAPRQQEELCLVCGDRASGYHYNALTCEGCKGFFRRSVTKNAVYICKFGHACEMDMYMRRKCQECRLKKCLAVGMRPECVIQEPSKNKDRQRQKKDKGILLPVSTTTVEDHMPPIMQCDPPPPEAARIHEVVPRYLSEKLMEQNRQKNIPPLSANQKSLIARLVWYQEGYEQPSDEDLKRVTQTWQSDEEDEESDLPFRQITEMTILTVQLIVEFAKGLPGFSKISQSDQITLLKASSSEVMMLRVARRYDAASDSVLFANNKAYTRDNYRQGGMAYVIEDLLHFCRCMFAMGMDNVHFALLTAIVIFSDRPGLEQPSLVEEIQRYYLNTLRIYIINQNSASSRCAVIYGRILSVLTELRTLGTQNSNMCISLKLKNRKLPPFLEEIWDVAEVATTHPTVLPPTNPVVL
# Sequence (P19793 1-462 partner): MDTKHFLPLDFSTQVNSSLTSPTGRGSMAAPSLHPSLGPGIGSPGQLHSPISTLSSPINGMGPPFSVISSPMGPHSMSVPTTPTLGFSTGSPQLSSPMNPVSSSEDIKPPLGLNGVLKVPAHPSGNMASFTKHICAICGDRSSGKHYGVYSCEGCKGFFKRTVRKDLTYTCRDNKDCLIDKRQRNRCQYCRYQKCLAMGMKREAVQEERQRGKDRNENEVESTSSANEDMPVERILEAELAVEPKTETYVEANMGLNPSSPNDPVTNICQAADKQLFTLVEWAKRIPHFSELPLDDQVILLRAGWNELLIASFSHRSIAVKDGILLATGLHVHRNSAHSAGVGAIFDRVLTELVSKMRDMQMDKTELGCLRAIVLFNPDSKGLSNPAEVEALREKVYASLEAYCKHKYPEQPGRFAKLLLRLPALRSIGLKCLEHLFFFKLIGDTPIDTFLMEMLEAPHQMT
# EXPERIMENT SUMMARY: Z3 Assay (HEK-293 cells with CVBE and 6XEcRE LacZ, β-galactosidase reporter)
# SETTINGS: read-out: Z3 assay EC50; HEK-293 Z3 cells, β-galactosidase reporter; average of two wells
Give bare numbers, as −log10 of the molar value.

# count of solved cases: 3
>  <SMILES NOTATION>
COCc1c(OC)cccc1C(=O)NN(C(=O)c1cc(C)cc(C)c1)C(C)(C)C

>  <TEST SYSTEM>
Bombyx mori EcR (VP16 fusion, CVBE switch construct) (Bombyx mori)

>  <RESULT>
5.41

$$$$
>  <SMILES NOTATION>
CCc1c(C(=O)NN(C(=O)c2ccc(F)c(F)c2F)C(C)(C)C)ccc2c1OCCO2

>  <TEST SYSTEM>
Bombyx mori EcR (VP16 fusion, CVBE switch construct) (Bombyx mori)

>  <RESULT>
6.74

$$$$
>  <SMILES NOTATION>
CCc1c(C(=O)NN(C(=O)c2cc(F)ccc2F)C(C)(C)C)ccc2c1OCCO2

>  <TEST SYSTEM>
Bombyx mori EcR (VP16 fusion, CVBE switch construct) (Bombyx mori)

>  <RESULT>
6.27

$$$$

Each of the following entries comes with a recorded value; kindly state pEC50 for each.
1. CCc1c(OC)cccc1C(=O)NN(C(=O)c1cccc(F)c1F)C(C)(C)C
2. CCc1c(C(=O)NN(C(=O)c2ccccc2OC)C(C)(C)C)ccc2c1OCO2

1. 6.09
2. 6.00

Each of the following entries comes with a recorded value; kindly state pEC50 for each.
1. CCc1ccc(C(=O)NN(C(=O)c2cc(C)c(Cl)c(C)c2)C(C)(C)C)cc1
2. COc1cccc(C(=O)NN(C(=O)c2cc(Cl)cc(Br)c2)C(C)(C)C)c1C
3. Cc1ccc([N+](=O)[O-])c(C(=O)N(NC(=O)c2ccc3c(c2C)OCCO3)C(C)(C)C)c1
4. CCc1c(OC)cccc1C(=O)NN(C(=O)c1ccc(Cl)cc1[N+](=O)[O-])C(C)(C)C

[6.57, 6.83, 6.78, 6.84]

Each of the following entries comes with a recorded value; kindly state pEC50 for each.
1. Cc1c(C(=O)NN(C(=O)c2cc(Cl)nc(Cl)c2)C(C)(C)C)ccc2c1OCCO2
2. COc1cc(C(=O)N(NC(=O)c2ccc3c(c2C)CCCO3)C(C)(C)C)cc(OC)c1C

[6.90, 7.37]

Each of the following entries comes with a recorded value; kindly state pEC50 for each.
1. COc1ccc(C(=O)NN(C(=O)c2cc(Cl)cc(Cl)c2)C(C)(C)C)cc1
2. CCc1c(OC)cccc1C(=O)NN(C(=O)c1cccc2c1OCO2)C(C)(C)C
3. CCc1c(C(=O)NN(C(=O)c2ccc(C)cc2)C(C)(C)C)ccc2c1OCOC2

[6.27, 5.93, 5.80]

Each of the following entries comes with a recorded value; kindly state pEC50 for each.
1. CCc1c(C(=O)NN(C(=O)c2cc(OC)c(C)c(OC)c2)C(C)(C)C)ccc2c1OCCO2
2. Cc1cc(C)cc(C(=O)N(NC(=O)c2ccc3cc[nH]c3c2)C(C)(C)C)c1
3. COc1ccccc1C(=O)N(NC(=O)c1ccc2c(c1)OCCO2)C(C)(C)C

1: 7.44; 2: 4.00; 3: 5.09

Each of the following entries comes with a recorded value; kindly state pEC50 for each.
1. Cc1cc(C)cc(C(=O)N(NC(=O)c2ccc3c(c2F)COCO3)C(C)(C)C)c1
2. CCc1c(OC)cccc1C(=O)NN(C(=O)c1cc(OC)cc(OC)c1)C(C)(C)C
3. CCc1c(OC)cccc1C(=O)NN(C(=O)c1cc(C)cc(C)c1)C(C)(C)C#N
4. CCc1c(OC)cccc1C(=O)NN(C(=O)c1cc(OC)c(C)c(OC)c1)C(C)(C)C#N
5. COc1ccc(Cl)cc1C(=O)N(NC(=O)c1ccc2c(c1C)CCCO2)C(C)(C)C

[4.68, 6.29, 6.75, 6.68, 6.40]

Each of the following entries comes with a recorded value; kindly state pEC50 for each.
1. Cc1c(C(=O)NN(C(=O)c2ccc(F)cc2)C(C)(C)C)ccc2c1CCCO2
2. CCc1c(OC)cccc1C(=O)NN(C(=O)c1cc(C)nc(Cl)c1)C(C)(C)C
3. Cc1c(C(=O)NN(C(=O)c2cc(Cl)cc(Cl)c2)C(C)(C)C)cccc1N(C)C

[6.63, 6.46, 5.80]

Data provenance is patent US9102648B1.
